System: Cucumber fusarium wilt
PROTOCOL_TEXT: In vitro fungicidal activity, PDA colony diameter
Type: cell-based
STUDY_CONDITIONS: 96 h, 50 mg/kg, inhibition of colony diameter, read-out: Fungicidal activity (%) Cucumber fusarium wilt
MEASURED_PROPERTY: inhibition of growth at 50 mg/kg (%)
Write down the numeric answer in % and omit the unit.

## Input Which measured inhibition of growth at 50 mg/kg value corresponds to `CC1=NNC(=O)N(NS(=O)(=O)Cc2ccccc2)C1` ?
## Output 0

## Input Query `CC1=NNC(=O)N(NS(=O)(=O)c2ccc(I)cc2)C1` next
## Output 8.8

## Input Now the molecule `CC1=NNC(=O)N(N(S(=O)(=O)c2ccccc2)S(=O)(=O)c2ccccc2)C1`
## Output 15

## Input Next: `CC1=NNC(=O)N(NS(=O)(=O)c2cccc(C)c2)C1`
## Output 8.8

----------
Test system: Maize borers
PROTOCOL_TEXT: Test of insecticidal activity against maize borers (leaf immersion)
STUDY_CONDITIONS: read-out: Mortalities (%) Maize borers
Would you kindly list mortality at 600 mg/kg for each of these molecules?
State the answer as a number, implicitly in %.

## Input Request the reported mortality at 600 mg/kg associated with `CC1=NNC(=O)N(N(S(=O)(=O)c2ccc([N+](=O)[O-])cc2)S(=O)(=O)c2ccc([N+](=O)[O-])cc2)C1`
## Output 15

## Input Could you do the same for `CC1=NNC(=O)N(NS(=O)(=O)Cc2ccccc2)C1` , please?
## Output 0

## Input Now this one: `CC1=NNC(=O)N(NS(=O)(=O)C2CC2)C1`
## Output 10

## Input Same thing, different molecule: `CC1=NNC(=O)N(NS(=O)(=O)c2ccc(I)cc2)C1`
## Output 20

## Input For `CC1=NNC(=O)N(NS(=O)(=O)c2ccc(Br)cc2)C1` then?
## Output 100

## Input // query: `CC1=NNC(=O)N(NS(=O)(=O)c2ccc(F)cc2F)C1`
## Output 20

----------
Tested on: Cucumber fusarium wilt
PROTOCOL_TEXT: In vitro fungicidal activity, PDA colony diameter
Type: cell-based
STUDY_CONDITIONS: 96 h, 50 mg/kg, inhibition of colony diameter, read-out: Fungicidal activity (%) Cucumber fusarium wilt
inhibition of growth at 50 mg/kg vs 9%: at or above is condition met, below is condition not met.

## Input Quick check, inhibition of growth at 50 mg/kg >= 9%? CC1=NNC(=O)N(NS(=O)(=O)c2cn(C)cn2)C1 [Ia-31]
## Output condition met

## Input What do we get for CC1=NNC(=O)N(NS(=O)(=O)c2c(C)cc(C)cc2C)C1 [Ia-13] ?
## Output condition not met

## Input Would you kindly repeat that for CC1=NNC(=O)N(NS(=O)(=O)c2ccc(F)c(F)c2F)C1 [Ia-20] ?
## Output condition not met

## Input How about this compound: CC1=NNC(=O)N(NS(=O)(=O)c2c(C)noc2C)C1 [Ia-30]
## Output condition met

## Input Then what about the compound CC1=NNC(=O)N(NS(=O)(=O)c2ccc(OC(F)(F)F)cc2)C1 [Ia-27] ?
## Output condition not met

## Input Now consider CC1=NNC(=O)N(NS(=O)(=O)c2ccccc2)C1 [Ia-9] .
## Output condition not met

## Input CCS(=O)(=O)N(N1CC(C)=NNC1=O)S(=O)(=O)CC [Ib-2] , same question.
## Output condition met

## Input And CC1=NNC(=O)N(NS(=O)(=O)c2cccs2)C1 [Ia-28] ?
## Output condition not met

----------
Test system: Capsicum phytophthora blight
PROTOCOL_TEXT: In vitro fungicidal activity, PDA colony diameter
Type: cell-based
STUDY_CONDITIONS: 96 h
# inhibition of growth at 50 mg/kg >= 30% gives YES, anything below gives NO

## Input Does the compound `CCS(=O)(=O)NN1CC(C)=NNC1=O` have recorded inhibition of growth at 50 mg/kg that is 30% or more?
## Output YES

## Input Continue with `CC1=NNC(=O)N(NS(C)(=O)=O)C1`
## Output YES

## Input Next up: `CC(=O)Nc1ccc(S(=O)(=O)NN2CC(C)=NNC2=O)cc1`
## Output NO

## Input Next record, please: `CCCS(=O)(=O)NN1CC(C)=NNC1=O`
## Output NO

## Input Then what about the compound `CC1=NNC(=O)N(NS(=O)(=O)C2CCCCC2)C1` ?
## Output NO

## Input Then what about the compound `CC1=NNC(=O)N(NS(=O)(=O)c2ccc(F)cc2F)C1` ?
## Output NO

## Input Try this compound next: `CCCCS(=O)(=O)NN1CC(C)=NNC1=O`
## Output YES

## Input Moving on to `CC1=NNC(=O)N(NS(=O)(=O)Cc2ccccc2)C1`
## Output YES

## Input Now try `COc1ccc(S(=O)(=O)NN2CC(C)=NNC2=O)cc1` .
## Output NO

## Input Also check `CC1=NNC(=O)N(NS(=O)(=O)c2cccc3ccccc23)C1`
## Output NO

## Input Likewise for `CC1=NNC(=O)N(NS(=O)(=O)c2ccc(C(F)(F)F)cc2)C1` ?
## Output NO

----------
Tested on: Capsicum phytophthora blight
PROTOCOL_TEXT: In vitro fungicidal activity, PDA colony diameter
Type: cell-based
STUDY_CONDITIONS: 96 h
Assign inhibition of growth at 50 mg/kg to each entry below.

## Input Item `CC1=NNC(=O)N(NS(=O)(=O)c2ccc(Cl)cc2)C1` with Capsicum phytophthora blight - inhibition of growth at 50 mg/kg?
## Output 25%

## Input // query: `CC1=NNC(=O)N(NS(=O)(=O)c2ccc(F)cc2)C1`
## Output 5.6%

## Input Continue with `CC1=NNC(=O)N(NS(=O)(=O)c2ccc(F)c(F)c2F)C1`
## Output 0%

## Input Also, `CC1=NNC(=O)N(NS(=O)(=O)c2ccccc2F)C1` please.
## Output 13.9%

## Input How about this molecule: `CC1=NNC(=O)N(NS(=O)(=O)c2cccc(C)c2)C1`
## Output 27.8%

## Input Then `CC(=O)Nc1ccc(S(=O)(=O)N(N2CC(C)=NNC2=O)S(=O)(=O)c2ccc(NC(C)=O)cc2)cc1` ?
## Output 20.4%

## Input Please answer likewise for CC1=NNC(=O)N(/N=C/c2cccnc2)C1 [Pymetrozine, reference compound]
## Output 36.7%

## Input What would you report for `CC1=NNC(=O)N(NS(=O)(=O)c2ccsc2)C1` ?
## Output 23.1%

## Input Same for `CC1=NNC(=O)N(NS(=O)(=O)c2ccc(C#N)cc2)C1`
## Output 22.2%

## Input // same read-out, input: N#Cc1c(Cl)c(Cl)c(Cl)c(C#N)c1Cl [Chlorothalonil, reference compound]
## Output 100%

## Input Now the molecule `CC1=NNC(=O)N(NS(=O)(=O)c2ccccc2)C1`
## Output 26.5%

## Input For `CC1=NNC(=O)N(NS(=O)(=O)c2ccc(C(C)(C)C)cc2)C1` then?
## Output 5.6%

## Input Now the same for `CCCS(=O)(=O)N(N1CC(C)=NNC1=O)S(=O)(=O)CCC`
## Output 26.5%

## Input Okay, and `CC1=NNC(=O)N(N(S(=O)(=O)c2ccc([N+](=O)[O-])cc2)S(=O)(=O)c2ccc([N+](=O)[O-])cc2)C1` ?
## Output 36.7%

## Input Repeat with `CC1=NNC(=O)N(NS(=O)(=O)c2ccccc2C)C1`
## Output 9.4%

## Input Repeat for the following molecule: `CC1=NNC(=O)N(NS(=O)(=O)c2cccc(F)c2)C1`
## Output 13.9%

## Input Same read-out for `CC1=NNC(=O)N(NS(=O)(=O)c2ccc(C)cc2)C1` ?
## Output 40.8%

## Input What about `CC1=NNC(=O)N(NS(=O)(=O)c2ccc(I)cc2)C1` ?
## Output 38.9%

## Input Continue with `CC1=NNC(=O)N(NS(=O)(=O)C2CC2)C1`
## Output 5.6%

## Input Now the same for `CC1=NNC(=O)N(N(S(=O)(=O)c2ccccc2)S(=O)(=O)c2ccccc2)C1`
## Output 42.9%

----------
Tested on: mosquito larvae (Culer pipiens pallens)
PROTOCOL_TEXT: Test of insecticidal activity against mosquito larvae (checked after 24 h)
STUDY_CONDITIONS: 24 h, read-out: Mortalities (%) against mosquito larvae
MEASURED_PROPERTY: mortality at 5 mg/kg (%)
Write the answer as a number in %, unit excluded.

## Input Item under review: `CC1=NNC(=O)N(NS(=O)(=O)c2ccccc2C)C1` . Reported mortality at 5 mg/kg?
## Output 100

## Input Further, for `CC1=NNC(=O)N(NS(=O)(=O)c2ccc(OC(F)(F)F)cc2)C1` ?
## Output 90

## Input Another: `CC1=NNC(=O)N(NS(=O)(=O)c2cccs2)C1`
## Output 20

## Input Next molecule: `CC1=NNC(=O)N(NS(=O)(=O)c2c(C)cc(C)cc2C)C1`
## Output 100

## Input # iterate: `CC1=NNC(=O)N(NS(=O)(=O)c2ccc(C#N)cc2)C1`
## Output 100

## Input Note, next up: `CC1=NNC(=O)N(NS(=O)(=O)c2cccc(C)c2)C1`
## Output 100

## Input Item: `CC1=NNC(=O)N(NS(=O)(=O)c2ccc(C(C)(C)C)cc2)C1`
## Output 100

## Input // repeat for `CC1=NNC(=O)N(NS(=O)(=O)c2ccc(C(F)(F)F)cc2)C1` and report
## Output 100

## Input Next: `CC1=NNC(=O)N(NS(=O)(=O)c2cccc(F)c2)C1`
## Output 100

## Input Again, but for `CC1=NNC(=O)N(NS(=O)(=O)c2ccc(C)cc2)C1`
## Output 100

## Input And the next one, `CC1=NNC(=O)N(NS(=O)(=O)c2ccccc2F)C1` ?
## Output 100

## Input One more molecule: `CC1=NNC(=O)N(NS(=O)(=O)c2ccc(Cl)cc2)C1`
## Output 100

## Input Here is the next molecule: `CC1=NNC(=O)N(NS(=O)(=O)c2ccccc2)C1`
## Output 80

## Input Record: `CC1=NNC(=O)N(NS(=O)(=O)c2ccc(F)cc2F)C1`
## Output 100

## Input Again, but for `CC1=NNC(=O)N(NS(=O)(=O)c2ccc(I)cc2)C1`
## Output 100

## Input Likewise for `COc1ccc(S(=O)(=O)NN2CC(C)=NNC2=O)cc1` ?
## Output 95

meta.source: patent US11203577B2
